# Test system: CEM cells HIV-1 protection, formazan growth assay
# Assay Info: NCI AIDS Antiviral Assay
# Experimental Setup: measured here: growth of uninfected CEM cells
Records here are stratified by IC50; strata: lower segment: < 20 µM; middle segment: ≥ 20 µM and < 200 µM; upper segment: ≥ 200 µM

Look over these answered cases.
COc1ccccc1NC(=S)N/N=C/c1cccc(C)n1: lower segment
COC(=O)CN(CC(=O)NCCCBr)C1CCCCC1N(CC(=O)OC)CC(=O)OC (stereo unspecified): upper segment
O=C(O)CSCCCCSCC(=O)O: upper segment
COc1ccc2nc3c([N+](=O)[O-])ccc4c3c(c2c1)N(CCCN(C)C)C(=S)N4CCCN(C)C: lower segment
Cc1cc(S(=O)(=O)NC(=NCCc2ccccc2)NN)c(S)cc1Cl: middle segment

query: Band of COc1cc2c(cc1OC)CC1c3cc(OC)c(OC)cc3CCN1CC2 (stereo unspecified) ?
result: middle segment

query: Band of CCOC(=O)c1c(C)cc(=O)n2c1[nH]c1ccccc12 ?
result: middle segment

query: Band of CCc1cccc(CC)c1NC(=O)C1=C(C)NC(C)=C(C(=O)Nc2c(CC)cccc2CC)C1c1ccc2c(c1)OCO2 ?
result: middle segment

query: Band of O=C(NN1C(=O)C=CC1=O)c1ccccc1Nc1ccccc1C(=O)NN1C(=O)C=CC1=O ?
result: middle segment

query: Band of Cc1cn(C2C=CCCC2O)c(=O)[nH]c1=O (stereo unspecified) ?
result: upper segment

query: Band of C[N+]12CCCc3cc(CO)cc(c31)CCC2 ?
result: upper segment

query: Band of CS(=O)(=O)OCC(CCl)(CCl)CCl ?
result: upper segment
